- ASSAY REMARKS: Cytotoxicity against human HepG2 cells assessed as intracellular ATP level at 30 uM after 24 hrs by ATPlite assay relative to control
- Assay type: cell-based
- ASSAY CONTEXT: read-out: Activity
Some compounds, each annotated with its measured viability at 24 h, 30 µM.
Param answer (str): number followed by unit.

Examples with answers:
[
  {
    "INPUT SMILES": "CCS(=O)(=O)CCOc1cc(C)c(-c2cccc(CNc3ccc(CCC(=O)O)c(F)c3)c2)c(C)c1",
    "MEASUREMENT LABEL": "viability at 24 h, 30 µM",
    "TEST RESULT": "45.7%"
  },
  {
    "INPUT SMILES": "Cc1cc(OC2CCOCC2)cc(C)c1-c1cccc(COc2ccc(CCC(=O)O)c(F)c2)c1",
    "MEASUREMENT LABEL": "viability at 24 h, 30 µM",
    "TEST RESULT": "38.1%"
  },
  {
    "INPUT SMILES": "CCS(=O)(=O)CCOc1cc(C)c(-c2cccc(COc3ccc(CCC(=O)O)c(F)c3)c2)c(C)c1",
    "MEASUREMENT LABEL": "viability at 24 h, 30 µM",
    "TEST RESULT": "32.5%"
  },
  {
    "INPUT SMILES": "Cc1cc(OC2CCS(=O)(=O)CC2)cc(C)c1-c1cccc(COc2ccc(CCC(=O)O)c(F)c2)c1",
    "MEASUREMENT LABEL": "viability at 24 h, 30 µM",
    "TEST RESULT": "38%"
  },
  {
    "INPUT SMILES": "Cc1cc(OCC2(O)CCS(=O)(=O)CC2)cc(C)c1-c1cccc(COc2ccc(CCC(=O)O)c(F)c2)c1",
    "MEASUREMENT LABEL": "viability at 24 h, 30 µM",
    "TEST RESULT": "61.5%"
  }
]

Could you now look at the following compound, please?
[Q] Which viability at 24 h, 30 µM value is on record for `Cc1cccc(Oc2cc(C)c(-c3cccc(COc4ccc(CCC(=O)O)c(F)c4)c3)c(C)c2)n1.Cl` ?
[A] 47.5%
